Read-out record for G9a (Homo sapiens): IC50
Where a name gives a salt, the structure may show the parent alone.
Give the value, in units of nM, as a plain number.

Compound	IC50 (nM)
COCCNc1c2c(nc3cc(OCCCN4CCCC4)c(OC)cc13)C1CCCC2C1 (stereo not shown)	39.8
COc1cc2c(NC3CCN(C(C)C)CC3)c3c(nc2cc1OCCCN(C)C)CCC3	4.9

Entry CCCOCCCNc1c2c(nc3cc(OCCCN4CCCC4)c(OC)cc13)CCC2 — recorded IC50 = 8.32

IC50 recorded for this compound, Oc1cc2c(NCC3CC3)c3c(nc2cc1OCCCN1CCCC1)CCC3 [Example 2, dihydrochloride] , is 158

---

Tested Target: UniProt Q96KQ7
Test Details: G9a AlphaLISA enzymatic activity assay
Assay type: biochemical
Stated Conditions: negative log of IC50 in molar, 0.15 nM G9a, 15 uM S-adenosyl-methionine, 100 nM biotinylated histone 3 peptide (1-21)
pIC50: −log10 of the molar value.
# binarize pIC50: threshold 7 inclusive, high side fulfilled, low side not fulfilled

Use the examples below as a reference point.
Compound	Tested Target	Label
COc1cc2c(NC(C)C)c3c(nc2cc1OCCCN1CCCC1)CCC3(C)C [Example 22]	UniProt Q96KQ7	not fulfilled
CCOCCCNc1c2c(nc3cc(OCCCN4CCCC4)c(OC)cc13)CCC2 [Example 11]	UniProt Q96KQ7	fulfilled
CCN(CC)CCOCCOc1cc2nc3c(c(NC(C)C)c2cc1OC)CCC3 [Example 66]	UniProt Q96KQ7	not fulfilled

// switching to the query compound
Request: Reported pIC50 reaches at least 7 for COCCNc1c2c(nc3cc(OCCCN4CCCC4)c(OC)cc13)CC(C)(C)C2 [Example 8] ?
Response: fulfilled

---

Tested Target: G9a (Homo sapiens)
Sequence (Q96KQ7 1-1210): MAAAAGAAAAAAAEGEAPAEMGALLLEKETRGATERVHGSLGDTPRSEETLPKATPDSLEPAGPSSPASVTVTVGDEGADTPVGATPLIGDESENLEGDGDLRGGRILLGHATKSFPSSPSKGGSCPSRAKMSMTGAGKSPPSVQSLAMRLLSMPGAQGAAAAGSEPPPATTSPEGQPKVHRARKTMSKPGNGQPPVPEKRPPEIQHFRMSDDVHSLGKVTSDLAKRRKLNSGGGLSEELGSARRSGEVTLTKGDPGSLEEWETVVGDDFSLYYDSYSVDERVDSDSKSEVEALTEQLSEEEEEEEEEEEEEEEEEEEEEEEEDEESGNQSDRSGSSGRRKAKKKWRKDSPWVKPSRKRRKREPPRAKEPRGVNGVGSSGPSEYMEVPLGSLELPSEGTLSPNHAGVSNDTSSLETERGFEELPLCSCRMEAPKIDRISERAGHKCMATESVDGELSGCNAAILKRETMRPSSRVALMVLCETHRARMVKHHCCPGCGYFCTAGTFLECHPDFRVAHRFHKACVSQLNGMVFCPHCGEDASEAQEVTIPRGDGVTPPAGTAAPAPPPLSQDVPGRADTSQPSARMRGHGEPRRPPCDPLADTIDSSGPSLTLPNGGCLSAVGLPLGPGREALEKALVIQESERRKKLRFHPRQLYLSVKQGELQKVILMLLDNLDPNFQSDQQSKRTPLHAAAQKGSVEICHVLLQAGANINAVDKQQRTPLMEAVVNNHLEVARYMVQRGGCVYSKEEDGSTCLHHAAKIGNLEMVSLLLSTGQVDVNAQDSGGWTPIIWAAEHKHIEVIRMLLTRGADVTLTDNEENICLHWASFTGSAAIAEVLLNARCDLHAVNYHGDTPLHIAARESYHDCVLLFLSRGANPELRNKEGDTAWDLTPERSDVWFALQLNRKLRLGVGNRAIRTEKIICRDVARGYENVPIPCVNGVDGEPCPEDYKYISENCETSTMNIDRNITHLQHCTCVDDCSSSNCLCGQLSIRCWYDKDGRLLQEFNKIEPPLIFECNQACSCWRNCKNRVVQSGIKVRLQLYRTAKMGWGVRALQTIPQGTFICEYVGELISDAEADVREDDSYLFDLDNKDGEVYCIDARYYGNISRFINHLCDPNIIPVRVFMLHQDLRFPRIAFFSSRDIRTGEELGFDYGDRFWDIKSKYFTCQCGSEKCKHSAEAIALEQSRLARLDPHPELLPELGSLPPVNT
Reported pIC50 values follow for various molecules
Bear in mind: pIC50 is minus log10 of a mol/L concentration; give just that figure.

In the examples that follow, each entry is paired with its recorded pIC50.
Molecule	pIC50
COCCNc1c2c(nc3cc(OCCCN4CCCC4)c(OC(F)F)cc13)CCC2	6.97
CNc1c2c(nc3cc(OCCCN4CCCC4)c(OC(F)F)cc13)CCC2	7.54
CNc1c2c(nc3cc(OCCCN(C)CCF)c(OC)cc13)CCC2	6.09
CNc1c2c(nc3cc(OC(C)CCN4CCCC4)c(OC)cc13)CCC2 (stereo not shown)	7.14

COc1cc2c(NC[C@@H]3CCOC3)c3c(nc2cc1OCCCN1CCCC1)CCC3 has a reported pIC50 of 8.22

pIC50 reading for COc1cc2c(NCC3CNC3)c3c(nc2cc1OCCCN1CC2CC(C2)C1)CCC3 : 8.08

Field pIC50 (entry CCNc1c2c(nc3cc(OCCCN4CCCC4)c(OC(F)F)cc13)CCC2 ) reads 7.45

// pIC50 value for COc1cc2c(NC[C@@H]3COCCO3)c3c(nc2cc1OCCCN1CCCC1)CCC3 : 7.95

The recorded pIC50 for CCNc1c2c(nc3cc(OCCCN4CCCC4)c(OC)cc13)CC(C)(C)C2 is 7.42

Record COCCNc1c2c(nc3cc(OCCCN4CCCC4)c(OC)cc13)CCC2(C)C , field pIC50: 6.33

pIC50 reading for CNc1c2c(nc3cc(OCCCN4CCCC4)c(OC)cc13)CCC2(C)C : 7.14

// recorded pIC50 for CCCOCCNc1c2c(nc3cc(OCCCN4CCCC4)c(OC)cc13)CCC2 : 7.43

Documented pIC50 of CNc1c2c(nc3cc(OCCCNS(C)(=O)=O)c(OC)cc13)CCC2 : 6.03

Reported pIC50 of COCCCNc1c2c(nc3cc(OCCCN4CCCC4)c(OC(F)F)cc13)CCC2 : 6.84

// recorded pIC50 for COCCNc1c2c(nc3cc(OCCCN4CCCC4)c(OC(F)(F)F)cc13)CCC2 : 6.11

Notebook: FC(F)Oc1cc2c(NCC3CC3)c3c(nc2cc1OCCCN1CCCC1)CCC3 , pIC50 read as 7.01

---

Tested Target: G9a (Homo sapiens, UniProt Q96KQ7)
Sequence (Q96KQ7 1-1210): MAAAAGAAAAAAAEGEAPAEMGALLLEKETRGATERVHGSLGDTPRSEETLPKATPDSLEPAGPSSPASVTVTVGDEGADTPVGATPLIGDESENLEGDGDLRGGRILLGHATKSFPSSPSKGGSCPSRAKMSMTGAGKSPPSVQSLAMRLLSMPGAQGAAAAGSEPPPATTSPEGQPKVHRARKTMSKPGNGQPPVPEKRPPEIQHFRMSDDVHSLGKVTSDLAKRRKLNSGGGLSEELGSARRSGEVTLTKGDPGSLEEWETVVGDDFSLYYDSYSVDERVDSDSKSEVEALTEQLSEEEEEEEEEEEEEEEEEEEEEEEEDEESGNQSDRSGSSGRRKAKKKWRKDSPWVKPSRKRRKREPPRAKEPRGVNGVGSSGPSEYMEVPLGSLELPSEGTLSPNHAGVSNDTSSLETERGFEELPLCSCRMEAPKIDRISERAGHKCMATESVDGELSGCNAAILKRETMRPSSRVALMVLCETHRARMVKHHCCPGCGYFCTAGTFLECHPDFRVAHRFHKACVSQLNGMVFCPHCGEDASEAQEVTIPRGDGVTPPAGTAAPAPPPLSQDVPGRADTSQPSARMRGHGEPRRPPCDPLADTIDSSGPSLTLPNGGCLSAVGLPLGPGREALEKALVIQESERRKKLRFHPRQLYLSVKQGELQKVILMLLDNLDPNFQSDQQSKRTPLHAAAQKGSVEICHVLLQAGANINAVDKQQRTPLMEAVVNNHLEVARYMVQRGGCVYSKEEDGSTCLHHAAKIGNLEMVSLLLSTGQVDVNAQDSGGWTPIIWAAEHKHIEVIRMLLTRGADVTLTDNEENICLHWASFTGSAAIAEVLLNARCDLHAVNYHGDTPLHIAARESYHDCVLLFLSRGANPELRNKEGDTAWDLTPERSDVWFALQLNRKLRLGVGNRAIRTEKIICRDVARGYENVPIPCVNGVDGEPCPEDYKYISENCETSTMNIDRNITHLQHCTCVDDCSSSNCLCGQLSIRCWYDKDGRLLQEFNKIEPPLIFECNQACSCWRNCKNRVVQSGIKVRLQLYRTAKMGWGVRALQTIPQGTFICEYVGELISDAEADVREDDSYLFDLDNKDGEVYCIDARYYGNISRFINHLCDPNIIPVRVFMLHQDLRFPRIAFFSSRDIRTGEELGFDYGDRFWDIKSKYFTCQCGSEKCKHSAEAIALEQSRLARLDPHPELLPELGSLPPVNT
// IC50 lookup, one value per entry
Give your result in µM as a bare value.

Some molecules with recorded IC50:
Molecule	IC50 (µM)
CCNc1c2c(nc3cc(OCCCN4CCCC4)c(OC)cc13)CCC2(C)C	0.0832
CNc1c2c(nc3cc(OCCCN4CCCC4)c(OC)cc13)C1CCCC2C1 (stereo not drawn)	0.0195

Consider now this further molecule.
Value of measured IC50 for the entry CC(C)Nc1c2c(nc3cc(OCCCN4CCCC4)c(OC(F)F)cc13)CCC2 : 0.0631

Values from patent US11584734B2
